study.target: human TLR9 (Homo sapiens (Human))
Sequence (Q9NR96 26-1032): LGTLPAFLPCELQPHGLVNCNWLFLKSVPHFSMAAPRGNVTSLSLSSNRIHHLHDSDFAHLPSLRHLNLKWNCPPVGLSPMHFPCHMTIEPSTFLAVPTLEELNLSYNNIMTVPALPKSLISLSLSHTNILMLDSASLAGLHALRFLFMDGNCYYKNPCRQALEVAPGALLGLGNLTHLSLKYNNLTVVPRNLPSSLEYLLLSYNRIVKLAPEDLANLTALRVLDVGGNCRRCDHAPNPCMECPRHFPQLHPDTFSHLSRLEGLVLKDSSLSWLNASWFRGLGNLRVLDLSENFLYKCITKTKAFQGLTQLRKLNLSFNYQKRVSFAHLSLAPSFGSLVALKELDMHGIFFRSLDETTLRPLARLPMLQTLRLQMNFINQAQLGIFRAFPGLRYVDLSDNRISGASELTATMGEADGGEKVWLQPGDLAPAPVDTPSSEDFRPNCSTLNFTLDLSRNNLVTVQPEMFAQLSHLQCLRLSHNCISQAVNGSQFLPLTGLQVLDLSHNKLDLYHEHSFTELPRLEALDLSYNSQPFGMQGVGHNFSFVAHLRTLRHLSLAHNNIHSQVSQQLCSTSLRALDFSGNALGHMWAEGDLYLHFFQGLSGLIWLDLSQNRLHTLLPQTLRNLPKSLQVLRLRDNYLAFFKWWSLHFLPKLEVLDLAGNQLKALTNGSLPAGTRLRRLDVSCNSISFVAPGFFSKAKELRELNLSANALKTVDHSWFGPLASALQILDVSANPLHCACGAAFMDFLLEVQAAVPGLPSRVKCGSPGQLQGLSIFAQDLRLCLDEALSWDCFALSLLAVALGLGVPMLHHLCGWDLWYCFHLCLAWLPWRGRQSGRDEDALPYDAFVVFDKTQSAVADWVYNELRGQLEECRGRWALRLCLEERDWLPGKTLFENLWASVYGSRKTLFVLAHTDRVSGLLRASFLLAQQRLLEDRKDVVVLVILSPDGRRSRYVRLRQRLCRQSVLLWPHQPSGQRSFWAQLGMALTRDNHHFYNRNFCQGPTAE
assay.info: TLR9 inhibition reporter assay (HEK-Blue SEAP);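 note: SEAP driven by an IFN-β minimal promoter with NF-κB and AP-1 sites, read after 22 h, compounds dosed 0.05 nM–50 µM, inhibition scaled between agonist plus DMSO and reference-inhibitor wells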
applied.conditions: read-out: TLR9 IC50; HEK-Blue cells overexpressing human TLR9, ODN2006 5 nM stimulation, SEAP reporter
Collected IC50 values appear next to each entry.
readout.name: IC50

compound | measured
COc1cc(-c2[nH]c3cc(C)c(C4CCC(N(C)C5COC5)CC4)nc3c2C(C)C)cn2ncnc12 (stereo not drawn) [Example 331] | 1.91 µM
Cc1c(-c2[nH]c3ccc(C4CCC(=O)CC4)nc3c2C(C)C)cn2ncnc2c1C | > 50 µM
Cc1c(-c2[nH]c3ccc(N4CC(N(C)CC(=O)N(C)C)C4)nc3c2C(C)C)cn2ncnc2c1C | > 50 µM

###

study.target: human TLR7 (Homo sapiens (Human))
Sequence (Q9NYK1 27-1049): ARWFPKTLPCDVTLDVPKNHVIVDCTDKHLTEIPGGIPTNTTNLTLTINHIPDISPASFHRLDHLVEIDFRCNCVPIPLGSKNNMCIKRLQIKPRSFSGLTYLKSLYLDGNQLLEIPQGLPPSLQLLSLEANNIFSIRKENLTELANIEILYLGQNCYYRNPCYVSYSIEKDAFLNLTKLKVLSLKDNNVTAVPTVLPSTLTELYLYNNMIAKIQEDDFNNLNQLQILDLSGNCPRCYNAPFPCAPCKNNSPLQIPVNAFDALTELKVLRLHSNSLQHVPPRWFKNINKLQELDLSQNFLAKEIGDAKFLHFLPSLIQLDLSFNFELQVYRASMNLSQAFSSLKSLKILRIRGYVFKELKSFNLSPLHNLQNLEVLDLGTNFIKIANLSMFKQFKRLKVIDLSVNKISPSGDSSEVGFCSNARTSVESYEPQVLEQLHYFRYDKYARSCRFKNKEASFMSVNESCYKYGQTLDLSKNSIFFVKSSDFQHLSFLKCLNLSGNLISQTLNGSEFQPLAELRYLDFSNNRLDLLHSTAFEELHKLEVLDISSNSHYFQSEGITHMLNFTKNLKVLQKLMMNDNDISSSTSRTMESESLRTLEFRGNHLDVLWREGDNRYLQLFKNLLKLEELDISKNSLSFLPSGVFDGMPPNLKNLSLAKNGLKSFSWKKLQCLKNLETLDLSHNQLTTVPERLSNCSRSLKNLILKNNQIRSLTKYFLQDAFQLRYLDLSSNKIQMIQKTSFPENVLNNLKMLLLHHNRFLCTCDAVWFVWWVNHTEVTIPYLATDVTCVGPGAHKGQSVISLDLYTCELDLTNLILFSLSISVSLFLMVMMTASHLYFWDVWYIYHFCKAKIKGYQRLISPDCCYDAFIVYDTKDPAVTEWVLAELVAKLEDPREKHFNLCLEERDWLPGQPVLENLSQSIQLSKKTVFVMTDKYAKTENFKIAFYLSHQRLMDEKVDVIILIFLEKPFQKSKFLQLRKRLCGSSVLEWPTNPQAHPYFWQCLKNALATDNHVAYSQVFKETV
assay.info: TLR7 inhibition reporter assay (HEK-Blue SEAP)
Type: cell-based
applied.conditions: HEK-Blue cells overexpressing human TLR7, SEAP reporter, gardiquimod 7.5 μM

molecule | IC50
Cc1c(-c2[nH]c3ccc(C4CCC(NCC5(S(C)(=O)=O)CC5)CC4)nc3c2C(C)C)cn2ncnc2c1C (centres unmarked) | 4.1 nM
COc1cc(-c2[nH]c3ccc(C4CNCCO4)nc3c2C(C)C)cn2ncnc12 (centres unmarked) [Example 671] | 1.4 nM
Cc1c(-c2[nH]c3ccc(C4CN(CCS(C)(=O)=O)C4)nc3c2C(C)C)cn2ncnc2c1C | 5.5 nM
COc1cc(-c2[nH]c3ccc(C4CN(C5CCOCC5)CCO4)nc3c2C(C)C)cn2ncnc12 (centres unmarked) | 12 nM
Cc1c(-c2[nH]c3ccc(C4CCC(N(CCO)CC5(S(C)(=O)=O)CC5)CC4)nc3c2C(C)C)cn2ncnc2c1C (centres unmarked) [Example 482] | 96 nM
COc1cc(-c2[nH]c3ccc(C4CCC(NCC#N)C4)nc3c2C(C)C)cn2ncnc12 (centres unmarked) | 0.74 nM
Cc1c(-c2[nH]c3ccc(C4CCC(N(CC#N)CCS(C)(=O)=O)CC4)nc3c2C(C)C)cn2ncnc2c1C (centres unmarked) [Example 458] | 5 nM
Cc1c(-c2[nH]c3ccc(CCC4CN(CC(C)(C)O)C4)nc3c2C(C)C)cn2ncnc2c1C | 49 nM

###

study.target: human TLR8 (Homo sapiens (Human), UniProt Q9NR97)
Sequence (Q9NR97 27-1041): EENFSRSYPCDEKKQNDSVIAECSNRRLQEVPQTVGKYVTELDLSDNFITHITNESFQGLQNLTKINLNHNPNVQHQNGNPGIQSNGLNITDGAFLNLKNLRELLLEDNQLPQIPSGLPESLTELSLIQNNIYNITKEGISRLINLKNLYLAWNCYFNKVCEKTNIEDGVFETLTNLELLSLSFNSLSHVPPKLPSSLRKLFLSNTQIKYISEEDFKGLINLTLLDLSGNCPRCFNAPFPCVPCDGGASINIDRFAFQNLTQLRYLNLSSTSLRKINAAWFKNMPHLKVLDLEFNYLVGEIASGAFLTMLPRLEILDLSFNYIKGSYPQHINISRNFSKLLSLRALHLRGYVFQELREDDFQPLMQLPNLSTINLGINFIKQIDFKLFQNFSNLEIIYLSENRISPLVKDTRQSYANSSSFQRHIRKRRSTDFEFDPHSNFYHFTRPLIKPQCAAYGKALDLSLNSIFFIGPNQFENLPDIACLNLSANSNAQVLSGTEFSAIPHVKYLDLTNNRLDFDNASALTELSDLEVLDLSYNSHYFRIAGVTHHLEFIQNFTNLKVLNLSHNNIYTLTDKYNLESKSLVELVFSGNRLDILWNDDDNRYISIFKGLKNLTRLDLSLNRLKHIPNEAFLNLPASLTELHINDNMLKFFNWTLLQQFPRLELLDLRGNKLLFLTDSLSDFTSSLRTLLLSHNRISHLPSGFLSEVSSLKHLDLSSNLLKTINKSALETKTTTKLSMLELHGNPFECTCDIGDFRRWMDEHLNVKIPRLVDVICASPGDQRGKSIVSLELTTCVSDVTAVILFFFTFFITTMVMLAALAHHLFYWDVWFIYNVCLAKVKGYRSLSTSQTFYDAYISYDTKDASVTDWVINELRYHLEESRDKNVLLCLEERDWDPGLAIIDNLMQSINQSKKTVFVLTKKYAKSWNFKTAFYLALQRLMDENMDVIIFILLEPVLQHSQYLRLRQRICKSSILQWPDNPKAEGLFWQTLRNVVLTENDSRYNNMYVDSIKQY
assay.info: TLR8 inhibition reporter assay (HEK-Blue SEAP)
applied.conditions: read-out: TLR8 IC50; HEK-Blue human TLR8 cells, R848 15.9 μM
pIC50: −log10 of the molar value.
Collected pIC50 values appear next to each entry.
readout.name: pIC50

molecule | readout.name | measured
Cc1c(-c2[nH]c3ccc(N4CCN(CCCS(C)(=O)=O)[C@H](C)C4)nc3c2C(C)C)cn2ncnc2c1C [Example 856] | pIC50 | 9.34
CCN(C)CC(=O)N1C[C@H]2CC[C@@H](C1)N2c1ccc2[nH]c(-c3cn4ncnc4c(C)c3C)c(C(C)C)c2n1 [Example 922] | pIC50 | 8.68
Cc1c(-c2[nH]c3ccc(N4[C@@H]5CC[C@H]4CN(C(=O)CN(CCO)C(C)(C)C)C5)nc3c2C(C)C)cn2ncnc2c1C [Example 925] | pIC50 | 8.04

###

study.target: human TLR8 (Homo sapiens (Human), UniProt Q9NR97)
assay.info: TLR8 inhibition reporter assay (HEK-Blue SEAP)
applied.conditions: read-out: TLR8 IC50; HEK-Blue cells overexpressing human TLR8, R848 15.9 μM stimulation, SEAP reporter
pIC50: −log10 of the molar value.

compound | reading.qualifier | pIC50
CNC1CN(c2ccc3[nH]c(-c4cn5ncnc5c(C)c4C)c(C(C)C)c3n2)C1 [Example 23] | < | 5.51
Cc1c(-c2[nH]c3ccc(C4CCC(NC5COC5)CC4)nc3c2C(C)C)cn2cnnc2c1C (stereo not drawn) [Example 233] | = | 7.62
COc1cc(-c2[nH]c3ccc(C4CCC(N5CCCC5)CC4)nc3c2C(C)C)cn2ncnc12 (stereo not drawn) [Example 195] | = | 8.37
CC(C)c1c(-c2cn(C)c3ncccc23)[nH]c2ccc(N3CCC(NCCS(C)(=O)=O)CC3)nc12 [Example 53] | = | 9.64
CC(C)c1c(-c2cn(C)c3ncccc23)[nH]c2ccc(N3CCC(N(CC#N)CC#N)CC3)nc12 [Example 52] | = | 7.70
COc1cc(-c2[nH]c3ccc(C4CCC(N(C)C5CC5)CC4)nc3c2C(C)C)cn2ncnc12 (stereo not drawn) [Example 172] | = | 7.89
